Data origin, for the record: paper PMC6503841

# measuredTarget: T1, AF9 YEATS domain, AF9 (1–138) (human, UniProt P42568 1-138)
# T1 sequence (looked up): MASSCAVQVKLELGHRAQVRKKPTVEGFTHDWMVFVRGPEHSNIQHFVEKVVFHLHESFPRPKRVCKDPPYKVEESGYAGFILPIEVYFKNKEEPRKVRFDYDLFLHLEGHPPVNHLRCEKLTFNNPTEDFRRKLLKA
# test: ITC
Where no end group is shown, it is not given here. The star is where a group is joined. Oxazole(5-CO) = O=C(c1cnco1)*; Crotonyl(E) = C/C=C/C(=O)*; 2Furoyl = O=C(c1ccco1)*; Cbz = O=C(OCc1ccccc1)*
endpointLabel: pKd
Please note pKd is a logarithmic value: minus log10 of concentration in mol/L. Answer with that number alone.

A selection of reference data follows.
- binder: "Cbz-QTARK(2Furoyl)"
  pKd: 6.48
- binder: "Cbz-QTARK(Oxazole(5-CO)) [XL-13a (XL-07i with the 2-furancarbonyl group replaced by a 5-oxazolecarbonyl group)]"
  pKd: 6.89

Moving on to the next binder.
Query block: Endpoint output: pKd of KQTARK(Crotonyl(E))STGG (peptide, UniProt P68431 5-14, looked up) [H3K9cr peptide (histone H3 residues 4–13, Lys 9 crotonylated)] . Value?
Result block: 4.83
